These measurements were taken from patent US10851098B2.

# tested target: human αVβ6 (Homo sapiens, UniProt P06756+P18564)
# Sequence (P06756 31-992 limits assumed): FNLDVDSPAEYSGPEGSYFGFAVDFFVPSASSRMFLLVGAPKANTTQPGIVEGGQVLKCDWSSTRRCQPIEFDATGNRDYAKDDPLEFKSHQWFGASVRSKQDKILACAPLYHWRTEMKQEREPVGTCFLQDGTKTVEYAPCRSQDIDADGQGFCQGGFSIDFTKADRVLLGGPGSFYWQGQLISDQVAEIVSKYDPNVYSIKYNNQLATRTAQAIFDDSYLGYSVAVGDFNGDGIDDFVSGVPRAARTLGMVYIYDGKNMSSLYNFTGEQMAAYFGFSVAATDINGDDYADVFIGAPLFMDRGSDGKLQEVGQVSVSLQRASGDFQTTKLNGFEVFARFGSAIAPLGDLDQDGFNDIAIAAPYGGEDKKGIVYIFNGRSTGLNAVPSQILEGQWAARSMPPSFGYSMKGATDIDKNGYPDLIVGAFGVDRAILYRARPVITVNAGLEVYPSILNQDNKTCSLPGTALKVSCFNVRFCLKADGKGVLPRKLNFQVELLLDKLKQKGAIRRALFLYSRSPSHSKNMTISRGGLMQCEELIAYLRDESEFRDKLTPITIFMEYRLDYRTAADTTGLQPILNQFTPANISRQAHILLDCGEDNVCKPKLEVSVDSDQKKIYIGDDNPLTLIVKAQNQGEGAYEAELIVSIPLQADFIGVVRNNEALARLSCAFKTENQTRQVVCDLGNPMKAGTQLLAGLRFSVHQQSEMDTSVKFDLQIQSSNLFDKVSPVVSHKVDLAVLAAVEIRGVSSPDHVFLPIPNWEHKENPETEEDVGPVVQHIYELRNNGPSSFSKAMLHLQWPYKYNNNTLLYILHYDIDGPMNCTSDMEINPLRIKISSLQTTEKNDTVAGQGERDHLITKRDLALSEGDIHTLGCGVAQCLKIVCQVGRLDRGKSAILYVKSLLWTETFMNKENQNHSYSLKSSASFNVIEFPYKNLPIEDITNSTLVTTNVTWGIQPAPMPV
# Sequence (P18564 22-707 limits assumed): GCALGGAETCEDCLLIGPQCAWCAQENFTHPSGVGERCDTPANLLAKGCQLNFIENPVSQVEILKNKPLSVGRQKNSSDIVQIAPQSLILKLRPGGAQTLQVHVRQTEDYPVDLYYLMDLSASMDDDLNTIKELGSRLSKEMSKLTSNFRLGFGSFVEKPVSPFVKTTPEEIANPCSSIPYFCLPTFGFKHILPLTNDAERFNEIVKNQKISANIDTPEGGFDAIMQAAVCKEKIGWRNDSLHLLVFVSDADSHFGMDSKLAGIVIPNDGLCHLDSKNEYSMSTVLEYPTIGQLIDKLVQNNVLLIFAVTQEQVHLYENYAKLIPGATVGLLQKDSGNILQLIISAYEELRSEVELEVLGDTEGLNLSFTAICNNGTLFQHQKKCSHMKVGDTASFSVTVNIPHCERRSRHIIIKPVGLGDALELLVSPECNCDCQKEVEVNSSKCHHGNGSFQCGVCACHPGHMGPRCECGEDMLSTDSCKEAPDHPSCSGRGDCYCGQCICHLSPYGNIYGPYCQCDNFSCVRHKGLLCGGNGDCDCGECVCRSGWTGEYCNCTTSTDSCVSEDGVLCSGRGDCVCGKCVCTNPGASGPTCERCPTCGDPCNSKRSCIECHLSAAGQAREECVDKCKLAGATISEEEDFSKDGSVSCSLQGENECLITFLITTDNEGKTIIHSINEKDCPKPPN
# test name: human αVβ6 HTRF binding assay
measurement name: pIC50
Answers are plain numbers, as −log10 of the molar value.

Sample records with pIC50:
Cc1nc2c(cc1Cn1cc(C(=O)NC(CC(=O)O)c3cc(Cl)cc(Cl)c3)c(CO)n1)CCCN2 (stereo not shown); 5.41
Cc1cc(C)c(S(=O)(=O)N[C@@H](CNC(=O)c2ccn(CCc3ccc4c(n3)NCCC4)n2)C(=O)O)c(C)c1; 9.00

Below is a list of compounds. For each, state its recorded pIC50.
1. CCCCCCOC(=O)N[C@@H](CNC(=O)c1cnn(CCc2ccc3c(n2)NCCC3)c1)C(=O)O
2. CN(C(=O)c1cn(CCc2ccc3c(n2)NCCC3)nc1C(F)(F)F)[C@@H](CC(=O)O)c1cc(Cl)cc(Cl)c1

-- reply
1. 9.15
2. 7.66
